Reported cell viability values for a set of compounds
System: MCF-7 breast cancer cells
Assay: Cell viability assay (MTT)
Type: cell-based, human
Settings: MCF-7, 48 h, 1.0 µM

COc1c(OC)c(-c2c[nH]c3ccccc23)c(OC)c(OC)c1-c1c[nH]c2ccccc12 [Compound 7, asterriquinol D dimethyl ether]
91.5 ± 6.3 % of control

// query GET /values?readout=cell viability&item= Cc1c(C)c(O)c2c(c1C)C(C)(O)OC2=O (stereo not drawn) [Compound 3, sclerolide]
// result 83.8 ± 3.1 % of control

// query GET /values?readout=cell viability&item= COC1=C(c2c[nH]c3ccccc23)C(=O)C(CC=C(C)C)=C(c2c[nH]c3ccccc23)C1=O [Compound 6, kumbicin D]
// result 84.6 ± 9.4 % of control

// query GET /values?readout=cell viability&item= Cc1c(C)c(O)c2c(c1C)C(C)C(=O)OC2=O (stereo not drawn) [Compound 4, sclerin]
// result 88.5 ± 4.7 % of control

// query GET /values?readout=cell viability&item= COc1c(OC)c(-c2c[nH]c3ccc(O)cc23)c(OC)c(OC)c1-c1c[nH]c2ccccc12 [Compound 8, petromurin C]
// result 77.7 ± 3.7 % of control

// query GET /values?readout=cell viability&item= C=C(C)C1CCC23C(O)CCC(C)C2(C)CCC(C)C3C1c1c[nH]c2ccccc12 (stereo not drawn) [Compound 5, 10,23-dihydro-24,25-dehydroaflavinine]
// result 78.5 ± 9.9 % of control

* * *

Assay: Cell viability assay (MTT)
Format: cell-based, human
Conditions: human, HaCaT keratinocytes, 24 h, read-out: Cytotoxicity IC50
Protocol: Rat cardiomyocyte H9c2 cells were kindly provided by Prof. Dr. Gunhild von Amsberg from the Martini-Klinik Prostate Cancer Center, University Hospital Hamburg-Eppendorf, Hamburg, Germany. […] Compounds at concentrations up to 100 µM were added to the wells for 24h or 48 h, and the viability of the cells was measured using an MTT (3-(4,5-dimethylthiazol-2-yl)-2,5-diphenyltetrazolium bromide) assay, which was performed according to the manufacturer’s instructions (Sigma-Aldrich, Munich, Germany). […]
propertyLabel: IC50 at 24 h

Recorded results for 4 compounds are shown here.
Cc1c(C)c(O)c2c(c1C)C(C)C(=O)OC2=O (centres unmarked) [Compound 4, sclerin]
≥ 100 µM
COC1=C(c2c[nH]c3ccccc23)C(=O)C(CC=C(C)C)=C(c2c[nH]c3ccccc23)C1=O [Compound 6, kumbicin D]
> 100 µM
COc1c(OC)c(-c2c[nH]c3ccc(O)cc23)c(OC)c(OC)c1-c1c[nH]c2ccccc12 [Compound 8, petromurin C]
> 100 µM
COc1c(OC)c(-c2c[nH]c3ccccc23)c(OC)c(OC)c1-c1c[nH]c2ccccc12 [Compound 7, asterriquinol D dimethyl ether]
> 100 µM

// next item, IC50 at 24 h requested
// query GET /values?readout=IC50 at 24 h&item= C=C(C)C1CCC23C(O)CCC(C)C2(C)CCC(C)C3C1c1c[nH]c2ccccc12 (centres unmarked) [Compound 5, 10,23-dihydro-24,25-dehydroaflavinine]
// result 52.8 µM

* * *

Test system: HaCaT keratinocytes
Assay: Cell viability assay (MTT)
Format: cell-based, human
Settings: 48 h, 1.0 µM
Reported cell viability values for a set of molecules

Recorded results for 4 molecules are shown here.
Cc1c(C)c(O)c2c(c1C)C(C)C(=O)OC2=O (stereo not drawn)
96.4 ± 1.4 % of control
C=C(C)C1CCC23C(O)CCC(C)C2(C)CCC(C)C3C1c1c[nH]c2ccccc12 (stereo not drawn) [Compound 5, 10,23-dihydro-24,25-dehydroaflavinine]
72.2 ± 4.3 % of control
Cc1c(C)c(O)c2c(c1C)C(C)(O)OC2=O (stereo not drawn) [Compound 3, sclerolide]
96.8 ± 1.0 % of control
COc1c(OC)c(-c2c[nH]c3ccc(O)cc23)c(OC)c(OC)c1-c1c[nH]c2ccccc12
95.8 ± 1.9 % of control

// query GET /values?readout=cell viability&item= COc1c(OC)c(-c2c[nH]c3ccccc23)c(OC)c(OC)c1-c1c[nH]c2ccccc12
// result 94.2 ± 8.7 % of control

// query GET /values?readout=cell viability&item= COC1=C(c2c[nH]c3ccccc23)C(=O)C(CC=C(C)C)=C(c2c[nH]c3ccccc23)C1=O
// result 100.5 ± 3.3 % of control
